# assay.target: Mu-type opioid receptor (Mus musculus) (UniProt P42866)
# Sequence (P42866 whole entry): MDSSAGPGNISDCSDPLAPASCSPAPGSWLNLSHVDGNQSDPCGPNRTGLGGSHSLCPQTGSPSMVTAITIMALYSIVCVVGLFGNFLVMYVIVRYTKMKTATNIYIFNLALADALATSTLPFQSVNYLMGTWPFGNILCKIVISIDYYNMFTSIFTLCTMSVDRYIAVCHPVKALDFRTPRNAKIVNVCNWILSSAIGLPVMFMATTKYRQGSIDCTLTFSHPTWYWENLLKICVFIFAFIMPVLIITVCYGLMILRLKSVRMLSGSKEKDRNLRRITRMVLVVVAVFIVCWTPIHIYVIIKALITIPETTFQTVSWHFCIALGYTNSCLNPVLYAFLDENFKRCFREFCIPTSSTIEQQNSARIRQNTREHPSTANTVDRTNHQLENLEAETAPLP
# method.summary: Agonist activity at mouse MOR expressed in CHO cell membranes assessed as induction of [35S]GTPgammaS binding after 90 mins by scintillation spectroscopy relative to DAMGO
# Format: functional
metric.name: Emax (%)

smiles_code=CN1CC[C@]23c4c5ccc(O)c4O[C@H]2[C@@H](NC(=O)c2cccnc2)C=C[C@H]3[C@H]1C5 assay_target="Mu-type opioid receptor (Mus musculus) (UniProt P42866)" metric_name=Emax recorded_value=114
smiles_code=CN1CC[C@]23c4c5ccc(O)c4O[C@H]2[C@@H](NC(=O)c2ccncc2)C=C[C@H]3[C@H]1C5 assay_target="Mu-type opioid receptor (Mus musculus) (UniProt P42866)" metric_name=Emax recorded_value=114
smiles_code=CN1CC[C@]23c4c5ccc(O)c4O[C@H]2[C@@H](NC(=O)c2ccncc2)CC[C@@]3(O)[C@H]1C5 assay_target="Mu-type opioid receptor (Mus musculus) (UniProt P42866)" metric_name=Emax recorded_value=115
smiles_code=CN1CC[C@]23c4c5ccc(O)c4O[C@H]2[C@H](NC(=O)/C=C/c2ccccc2)C=C[C@H]3[C@H]1C5 assay_target="Mu-type opioid receptor (Mus musculus) (UniProt P42866)" metric_name=Emax recorded_value=95.3
smiles_code=CN1CC[C@]23c4c5ccc(O)c4O[C@H]2[C@@H](NC(=O)c2cccnc2)CC[C@@]3(O)[C@H]1C5 assay_target="Mu-type opioid receptor (Mus musculus) (UniProt P42866)" metric_name=Emax recorded_value=121
smiles_code=CN1CC[C@]23c4c5ccc(O)c4O[C@H]2[C@@H](NC(=O)c2ccncc2)CC[C@H]3[C@H]1C5 assay_target="Mu-type opioid receptor (Mus musculus) (UniProt P42866)" metric_name=Emax recorded_value=115
smiles_code=CN1CC[C@]23c4c5ccc(O)c4O[C@H]2[C@@H](NC(=O)c2cccnc2)CC[C@H]3[C@H]1C5 assay_target="Mu-type opioid receptor (Mus musculus) (UniProt P42866)" metric_name=Emax recorded_value=117

----------
# assay.target: Delta-type opioid receptor (Mus musculus, UniProt P32300)
# Sequence (P32300 whole entry): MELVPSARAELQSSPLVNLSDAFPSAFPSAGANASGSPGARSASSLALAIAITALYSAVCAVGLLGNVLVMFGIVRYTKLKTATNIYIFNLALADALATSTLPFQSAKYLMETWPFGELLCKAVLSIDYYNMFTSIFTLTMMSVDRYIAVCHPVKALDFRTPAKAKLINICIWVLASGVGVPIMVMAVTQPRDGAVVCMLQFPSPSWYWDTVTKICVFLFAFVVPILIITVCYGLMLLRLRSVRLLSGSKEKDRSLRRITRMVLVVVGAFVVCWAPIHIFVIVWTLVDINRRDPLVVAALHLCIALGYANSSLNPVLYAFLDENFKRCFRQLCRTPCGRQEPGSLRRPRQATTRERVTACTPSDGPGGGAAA
# method.summary: Displacement of [125I]BNtxA from mouse DOR expressed in CHO cell membranes after 90 mins by filter binding assay
pKi: −log10 of the molar value.
Decision: pKi compared against 7; not below it gives yes, below it gives no.

smiles_code=CN1CC[C@]23c4c5ccc(O)c4O[C@H]2[C@@H](NC(=O)c2ccncc2)CC[C@@]3(O)[C@H]1C5 category=no
smiles_code=CN1CC[C@]23c4c5ccc(O)c4O[C@H]2[C@@H](NC(=O)c2cccnc2)C=C[C@H]3[C@H]1C5 category=yes
smiles_code=COc1ccc2c3c1O[C@H]1[C@@H](NC(=O)c4ccncc4)C=C[C@H]4[C@@H](C2)N(C)CC[C@@]341 category=no
smiles_code=CN1CC[C@]23c4c5ccc(O)c4O[C@H]2[C@@H](NC(=O)c2ccncc2)CC[C@H]3[C@H]1C5 category=no

----------
# assay.target: Kappa-type opioid receptor (Mus musculus, UniProt P33534)
# Sequence (P33534 whole entry): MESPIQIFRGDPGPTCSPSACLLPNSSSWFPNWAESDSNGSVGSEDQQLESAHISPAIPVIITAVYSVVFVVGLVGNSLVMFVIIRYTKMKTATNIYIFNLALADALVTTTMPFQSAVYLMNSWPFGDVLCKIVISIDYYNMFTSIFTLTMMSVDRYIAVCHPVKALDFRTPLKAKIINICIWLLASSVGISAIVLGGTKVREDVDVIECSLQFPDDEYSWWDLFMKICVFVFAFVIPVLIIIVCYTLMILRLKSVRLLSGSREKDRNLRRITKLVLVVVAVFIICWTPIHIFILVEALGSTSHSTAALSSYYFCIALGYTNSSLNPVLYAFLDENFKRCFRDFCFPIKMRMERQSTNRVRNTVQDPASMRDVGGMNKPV
# method.summary: Displacement of [125I]BNtxA from mouse KOR expressed in CHO cell membranes after 90 mins by filter binding assay
pKi: −log10 of the molar value.
metric.name: pKi

smiles_code=CN1CC[C@]23c4c5ccc(O)c4O[C@H]2[C@@H](NC(=O)c2ccncc2)C=C[C@H]3[C@H]1C5 assay_target="Kappa-type opioid receptor (Mus musculus, UniProt P33534)" lt_gt_eq== recorded_value=7.11
smiles_code=COc1ccc2c3c1O[C@H]1[C@@H](NC(=O)c4ccncc4)C=C[C@H]4[C@@H](C2)N(C)CC[C@@]341 assay_target="Kappa-type opioid receptor (Mus musculus, UniProt P33534)" lt_gt_eq=< recorded_value=7.00
smiles_code=CN1CC[C@]23c4c5ccc(O)c4O[C@H]2[C@@H](NC(=O)c2cccnc2)CC[C@H]3[C@H]1C5 assay_target="Kappa-type opioid receptor (Mus musculus, UniProt P33534)" lt_gt_eq== recorded_value=6.92
smiles_code=CN1CC[C@]23c4c5ccc(O)c4O[C@H]2[C@@H](NC(=O)c2cccnc2)C=C[C@H]3[C@H]1C5 assay_target="Kappa-type opioid receptor (Mus musculus, UniProt P33534)" lt_gt_eq== recorded_value=7.72
smiles_code=CN1CC[C@]23c4c5ccc(O)c4O[C@H]2[C@@H](NC(=O)c2cccnc2)CC[C@@]3(O)[C@H]1C5 assay_target="Kappa-type opioid receptor (Mus musculus, UniProt P33534)" lt_gt_eq=< recorded_value=7.00
smiles_code=CN1CC[C@]23c4c5ccc(O)c4O[C@H]2[C@@H](NC(=O)c2ccncc2)CC[C@H]3[C@H]1C5 assay_target="Kappa-type opioid receptor (Mus musculus, UniProt P33534)" lt_gt_eq=< recorded_value=7.00
smiles_code=CN1CC[C@]23c4c5ccc(O)c4O[C@H]2[C@@H](NC(=O)c2ccncc2)CC[C@@]3(O)[C@H]1C5 assay_target="Kappa-type opioid receptor (Mus musculus, UniProt P33534)" lt_gt_eq=< recorded_value=7.00

----------
// Ki lookup, one value per entry
# assay.target: Delta-type opioid receptor (Mus musculus, UniProt P32300)
# method.summary: Displacement of [125I]BNtxA from mouse DOR expressed in CHO cell membranes after 90 mins by filter binding assay
metric.name: Ki (nM)

smiles_code=CN1CC[C@]23c4c5ccc(O)c4O[C@H]2[C@@H](NC(=O)c2ccncc2)C=C[C@H]3[C@H]1C5 measurement_unit=nM recorded_value=65
smiles_code=CN1CC[C@]23c4c5ccc(O)c4O[C@H]2[C@@H](NC(=O)c2cccnc2)CC[C@@]3(O)[C@H]1C5 measurement_unit=nM recorded_value=104
smiles_code=CN1CC[C@]23c4c5ccc(O)c4O[C@H]2[C@@H](NC(=O)c2cccnc2)CC[C@H]3[C@H]1C5 measurement_unit=nM recorded_value=130

Source: ChEMBL document CHEMBL4138045
